system: FOXO3; test: qPCR analysis of FOXO3-regulated genes; format: cell-based, human; settings: Homo sapiens; qPCR; WI-38 cells; 10 μM, n=4, 24 hrs; normalized by B2M; read-out: TXNIP Normalized fold change
Binary classification by fold induction at 10 µM, with 0.9 as an inclusive lower bound for Met; all other cases are Not met.

> print(dat)
                                        smi  labelclass
1  N=C1S/C(=C\c2cn(-c3ccccc3)nc2-c2cccs2)C(=O)N1c1nccs1     Not met
2  CCc1ccc(Oc2nc3ccccn3c(=O)c2/C=C(\C#N)C(=O)NCc2ccco2)cc1         Met
3  O=C(Nc1ccc(Cl)c(Cl)c1)c1ccc([N+](=O)[O-])o1         Met
4   Cc1ccc(NC(=O)c2ccc([N+](=O)[O-])o2)cc1C         Met
5  O=C(/C=C/c1cn(-c2ccccc2)nc1-c1cccnc1)c1ccccc1     Not met
6  COC(=O)CCc1sc2c(c1[N+](=O)[O-])NC(=O)CCC2         Met
7  CC(C)(C)c1ccc(OCC(=O)Nc2ccc3c4c(cccc24)C(=O)NC3=O)cc1     Not met
8  O=C(NCc1cccnc1)/C(=C\c1ccc(Br)cc1)S(=O)(=O)c1ccccc1     Not met
